Tested on: MM.1S cells
Assay: Inhibitory effect on the proliferation of MM.1S, MTS cell viability test
Format: cell-based
Conditions: Homo sapiens, MM1.S, 168 h, multiple myeloma MM.1S cells, 7 days incubation, read-out: Tumor cell inhibitory activity
measure-name: IC50

molecule | value-observed
N#CC1(c2ccc(Cl)cc2F)CCN(CCCOc2cccc3c2CN(C2CCC(=O)NC2=O)C3=O)CC1 (stereo not shown) [Example 72] | < 0.1 µM
N#CC1(c2cccc(Cl)c2)CCN(CCCOc2cccc3c2CN(C2CCC(=O)NC2=O)C3=O)CC1 (stereo not shown) [Example 57] | < 0.1 µM
N#CC1(c2cccc(Cl)c2)CCN(CCCCc2cccc3c2CN(C2CCC(=O)NC2=O)C3=O)CC1 (stereo not shown) [Example 93] | < 0.1 µM
COc1ccc(OC)c(C2(C#N)CCN(CCCCc3cccc4c3CN(C3CCC(=O)NC3=O)C4=O)CC2)c1 (stereo not shown) [Example 246] | 0.1 to 1 µM

---

Test system: MM.1S cells
Assay: Inhibitory effect on the proliferation of MM.1S, MTS cell viability test
Assay type: cell-based
Conditions: Homo sapiens, MM1.S, 168 h, multiple myeloma MM.1S cells, 7 days incubation, read-out: Tumor cell inhibitory activity
Catalogue of IC50 readings, one per entry.

compound | IC50
O=C1CCC(N2Cc3c(CCCCN4CCN(c5cccc(Cl)c5)CC4)cccc3C2=O)C(=O)N1 (stereo not drawn) | < 100 nM
Cc1cc(C)c(C2(C#N)CCN(CCCCc3cccc4c3CN(C3CCC(=O)NC3=O)C4=O)CC2)c(C)c1 (stereo not drawn) | 1000 to 20000 nM
C[C@]1(N2Cc3c(OCCCN4CCC(C#N)(c5ccccc5Cl)CC4)cccc3C2=O)CCC(=O)NC1=O | 1000 to 20000 nM
COc1ccc2c(c1)C1(CCN(CCCCCc3cccc4c3CN(C3CCC(=O)NC3=O)C4=O)CC1)C(=O)N2 (stereo not drawn) | 100 to 1000 nM
Cc1ccc(NC(=O)NCCCCOc2cccc3c2CN(C2CCC(=O)NC2=O)C3=O)cc1Cl (stereo not drawn) | < 100 nM
O=C1CCC(N2Cc3c(CCCCCOc4cnc5ccccc5c4)cccc3C2=O)C(=O)N1 (stereo not drawn) | < 100 nM
CCC(=O)N[C@@H](CCCc1cccc2c1CN(C1CCC(=O)NC1=O)C2=O)C(=O)NCc1ccccc1 (stereo partly drawn) | < 100 nM
CC(=O)N[C@@H](CCCc1cccc2c1CN(C1CCC(=O)NC1=O)C2=O)C(=O)Nc1ccccc1-c1ccccn1 (stereo partly drawn) | 100 to 1000 nM
N#CC1(c2ccccc2Cl)CCN(CCCCCc2cccc3c2CN(C2CCC(=O)NC2=O)C3=O)CC1 (stereo not drawn) | < 100 nM
N#CC1(c2ccccc2Cl)CCN(CCCOc2cccc3c2CN(C2CCC(=O)NC2=O)C3=O)CC1 (stereo not drawn) | < 100 nM
O=C1CCC(N2Cc3c(CCCCCN4CCN(c5ccc(Cl)cc5Cl)CC4)cccc3C2=O)C(=O)N1 (stereo not drawn) | 1000 to 20000 nM
O=C1CCC(N2Cc3c(OCCCCCCN4CCC5(CC4)COc4ccccc45)cccc3C2=O)C(=O)N1 (stereo not drawn) | < 100 nM
[2H]c1c([2H])c([2H])c(N2CCN(CCCCCCc3cccc4c3CN(C3CCC(=O)NC3=O)C4=O)CC2)c([2H])c1[2H] (stereo not drawn) | < 100 nM
N#CC1(c2cc(Cl)cc(Cl)c2)CCN(CCCCc2cccc3c2CN(C2CCC(=O)NC2=O)C3=O)CC1 (stereo not drawn) | 100 to 1000 nM
CC(=O)N[C@@H](CCCc1cccc2c1CN(C1CCC(=O)NC1=O)C2=O)C(=O)NCc1ccc(OCCN(C)C)cc1 (stereo partly drawn) | 1000 to 20000 nM
